# Test system: HOP-62
# Test: Cytotoxicity against human HOP62 cells
# Format: cell-based
Property: LC50; scope: individual compounds

Compound	Value Qualifier	LC50 (µM)
O=C(/C=C/c1ccc(CN(CCO)CCc2c[nH]c3ccccc23)cc1)NO	>	100
CC(/C=C/c1ccccc1)n1cc(/C=C/C(=O)NO)nn1 (centres undefined)	=	48.2
O=C(/C=C/c1cn(C(/C=C/c2ccccc2)Cc2ccccc2)nn1)NO (centres undefined)	=	18.3
CC(C)C(/C=C/c1ccccc1)n1cc(/C=C/C(=O)NO)nn1 (centres undefined)	=	23.4

* * *

# Test System: Histone deacetylase
# Test: Inhibition of HDAC in human HeLa cells using Ac-Arg-Gly-Lys(Ac)-AMC as fluorescent substrate after 20 mins by fluorescence assay
# Type: cell-based
param class (str): category from IC50; see ranges LOW: < 60 nM; MEDIUM: ≥ 60 nM and < 100 nM; HIGH: ≥ 100 nM

Compound	Assigned Label
CC(C)C(/C=C/c1ccccc1)n1cc(/C=C/C(=O)NO)nn1 (stereo unspecified)	LOW
O=C(/C=C/c1cn(C(/C=C/c2ccccc2)Cc2ccc3ccccc3c2)nn1)NO (stereo unspecified)	MEDIUM
CCC(/C=C/c1ccccc1)n1cc(/C=C/C(=O)NO)nn1 (stereo unspecified)	LOW
O=C(/C=C/c1cn(C(/C=C/c2ccccc2)C2CCC2)nn1)NO (stereo unspecified)	LOW
O=C(/C=C/c1cn(C(/C=C/c2ccccc2)C2CCCC2)nn1)NO (stereo unspecified)	HIGH
CC(C)CC(/C=C/c1ccccc1)n1cc(/C=C/C(=O)NO)nn1 (stereo unspecified)	HIGH
CC(/C=C/c1ccccc1)n1cc(/C=C/C(=O)NO)nn1 (stereo unspecified)	MEDIUM
O=C(/C=C/c1cn(C(/C=C/c2ccccc2)Cc2cccc(-c3ccccc3)c2)nn1)NO (stereo unspecified)	HIGH
CC(C)(C)C(/C=C/c1ccccc1)n1cc(/C=C/C(=O)NO)nn1 (stereo unspecified)	LOW
CCCCC(/C=C/c1ccccc1)n1cc(/C=C/C(=O)NO)nn1 (stereo unspecified)	HIGH
CCCC(/C=C/c1ccccc1)n1cc(/C=C/C(=O)NO)nn1 (stereo unspecified)	HIGH
